// cross-study collection: pKi for ATP-dependent translocase ABCB1 (Homo sapiens)
pKi: −log10 of the molar value.

>  <Compound>
COc1cccc(N2CCN(CCCCn3ncc(=O)n(C)c3=O)CC2)c1

>  <Tested on>
ATP-dependent translocase ABCB1 (Homo sapiens)

>  <Result operator>
<

>  <pKi>
5.00

$$$$
>  <Compound>
CCCC(=O)O[C@@H]1[C@H]2[C@H](OC(=O)/C=C/c3ccccc3)[C@H](OC(=O)c3ccccc3)[C@]3(C)[C@@H](OC(C)=O)CC[C@](C)(O)[C@@]13OC2(C)C

>  <Tested on>
ATP-dependent translocase ABCB1 (Homo sapiens)

>  <Result operator>
=

>  <pKi>
6.49

$$$$
>  <Compound>
C[C@@H]1CC[C@@H]2[C@@H](C1)C1=C(OC2(C)C)C(=O)C2=C(OC(C)(C)[C@@H]3CC[C@@H](C)C[C@@H]23)C1=O

>  <Tested on>
ATP-dependent translocase ABCB1 (Homo sapiens)

>  <Result operator>
=

>  <pKi>
6.11

$$$$
>  <Compound>
CC(=O)O[C@H]1CC[C@](C)(O)[C@]23OC(C)(C)[C@H]([C@H](OC(=O)/C=C/c4ccccc4)[C@H](OC(=O)c4ccccc4)[C@]12C)[C@H]3OC(=O)c1cnccn1

>  <Tested on>
ATP-dependent translocase ABCB1 (Homo sapiens)

>  <Result operator>
=

>  <pKi>
5.76

$$$$
>  <Compound>
CC(=O)O[C@H]1CC[C@](C)(O)[C@]23OC(C)(C)[C@H]([C@H](OC(=O)/C=C/c4ccccc4)[C@H](OC(=O)c4ccccc4)[C@]12C)[C@H]3OC(=O)CCC(=O)OCCO

>  <Tested on>
ATP-dependent translocase ABCB1 (Homo sapiens)

>  <Result operator>
=

>  <pKi>
6.30

$$$$
>  <Compound>
CC(=O)OC[C@]12[C@@H](OC(=O)c3ccoc3)C[C@@H]3[C@@H](OC(=O)c4ccccc4)[C@]1(OC3(C)C)[C@@](C)(O)C[C@H](OC(C)=O)[C@@H]2OC(C)=O

>  <Tested on>
ATP-dependent translocase ABCB1 (Homo sapiens)

>  <Result operator>
=

>  <pKi>
6.23

$$$$
>  <Compound>
CC(=O)O[C@H]1CC[C@](C)(O)[C@]23OC(C)(C)[C@H]([C@H](OC(=O)/C=C/c4ccccc4)[C@H](OC(=O)c4ccccc4)[C@]12C)[C@H]3OC(=O)CBr

>  <Tested on>
ATP-dependent translocase ABCB1 (Homo sapiens)

>  <Result operator>
=

>  <pKi>
6.51

$$$$
>  <Compound>
CC(=O)O[C@@H]1C[C@](C)(O)[C@@]23C[C@@H](C[C@H](OC(=O)/C=C/c4ccccc4)[C@]2(C)[C@H]1OC(=O)c1ccoc1)C(C)(C)O3

>  <Tested on>
ATP-dependent translocase ABCB1 (Homo sapiens)

>  <Result operator>
=

>  <pKi>
6.24

$$$$
>  <Compound>
COc1ccc2c(c1)OC[C@@H]1[C@H]2C2=C(OC1(C)C)C(=O)C1=C(OC(C)(C)[C@@H]3COc4cc(OC)ccc4[C@H]13)C2=O

>  <Tested on>
ATP-dependent translocase ABCB1 (Homo sapiens)

>  <Result operator>
=

>  <pKi>
6.29

$$$$
>  <Compound>
CC(=O)O[C@H]1CC[C@](C)(O)[C@]23OC(C)(C)[C@H]([C@H](OC(=O)/C=C/c4ccccc4)[C@H](OC(=O)c4ccccc4)[C@]12C)[C@H]3OC(=O)CCl

>  <Tested on>
ATP-dependent translocase ABCB1 (Homo sapiens)

>  <Result operator>
=

>  <pKi>
5.82

$$$$
>  <Compound>
CC(=O)O[C@@H]1[C@H](OC(C)=O)[C@@H](C)[C@@]23C[C@@H](C[C@H](OC(=O)c4ccccc4)[C@]2(C)[C@H]1OC(=O)c1ccoc1)C(C)(C)O3

>  <Tested on>
ATP-dependent translocase ABCB1 (Homo sapiens)

>  <Result operator>
=

>  <pKi>
6.19

$$$$
>  <Compound>
CC(=O)O[C@H]1CC[C@](C)(O)[C@]23OC(C)(C)[C@H]([C@H](OC(=O)/C=C/c4ccccc4)[C@H](OC(=O)c4ccccc4)[C@]12C)[C@H]3OC(=O)CCC(=O)OC1CCCCC1O (some centres not stated)

>  <Tested on>
ATP-dependent translocase ABCB1 (Homo sapiens)

>  <Result operator>
=

>  <pKi>
6.34

$$$$
